# SUBJECT_OF_TEST: Quinolone resistance protein NorA (Staphylococcus aureus)
# EXPERIMENT_NOTES: Inhibition of NorA in Staphylococcus aureus 1199B assessed as reduction in ethidium bromide efflux at 50 uM by fluorimetry after 5 mins
Hi, to clarify the labels: true covers inhibition from 80% upward, false covers anything below 80%.

Use these answered entries as a reference point.
COMPOUND | CATEGORY_LABEL
CCCOc1ccc(-c2cc(OCCN3CCCCC3)c3ccccc3n2)cc1 | true
C[C@@H](NCc1cccc(OCc2ccccc2)c1)[C@@H](O)c1ccccc1 | true
OCCN1CCN(CC/C=C2\c3ccccc3Sc3ccc(C(F)(F)F)cc32)CC1 | false

Exercise: Could you verify whether the entry `Cc1ccc(N2CCN(C3=Nc4cc(Cl)ccc4Oc4ccccc43)CC2)cc1` shows inhibition of no less than 80%?
Solution: false

Exercise: Could you verify whether the entry OC(CNCc1cccc(OCc2ccccc2)c1)c1ccccc1 (stereo unspecified) shows inhibition of no less than 80%?
Solution: true

Exercise: Could you verify whether the entry `COc1ccc(-c2cc(=O)c3ccccc3n2C)cc1` shows inhibition of no less than 80%?
Solution: false

Exercise: Could you verify whether the entry `COc1cc2c(=O)cc(-c3ccccc3)n(C)c2cc1OC` shows inhibition of no less than 80%?
Solution: false

Source: ChEMBL document CHEMBL1649083
